// data source = patent US20230167182A1

# measuredOn: T1, human IL6R expressed on cell surface (human, UniProt P08887 20-468)
# T1 construct: whole, on cells; also called cell surface human IL6R; U266 cells expressing human IL6R
# T1 sequence (looked up): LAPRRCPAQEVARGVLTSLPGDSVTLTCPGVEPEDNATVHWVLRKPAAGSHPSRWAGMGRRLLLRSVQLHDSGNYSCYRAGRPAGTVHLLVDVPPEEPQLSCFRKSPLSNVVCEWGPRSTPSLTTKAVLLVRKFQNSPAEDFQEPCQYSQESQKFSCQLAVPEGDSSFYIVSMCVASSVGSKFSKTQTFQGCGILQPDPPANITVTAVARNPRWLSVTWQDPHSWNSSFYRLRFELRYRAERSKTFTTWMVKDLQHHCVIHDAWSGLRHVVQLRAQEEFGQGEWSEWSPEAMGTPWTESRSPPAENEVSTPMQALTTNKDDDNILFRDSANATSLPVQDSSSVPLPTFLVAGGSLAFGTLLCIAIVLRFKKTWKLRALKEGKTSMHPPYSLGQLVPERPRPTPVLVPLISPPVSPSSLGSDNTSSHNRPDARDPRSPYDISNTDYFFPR
# assayExplanation: cell-based binding FACS on U266 cells
propertyName: EC50

// below: answered binders
INSERT INTO assay_data (binder, valuereported) VALUES
  ('mouse anti-IL6R monoclonal antibody 1D4 (antibody, V domains shown, Mouse hybridoma mAb) VH: QVQLQQPGAELVKPGASVKLSCKASGYTFTSYWMHWVKVRPGQGLEWIGEINPTNGRTNYNEDFKSKATLTVNSSSSTAYMQLSSLTSEDSAVYYCARLNTHYVFDYWGQGTTLTVSS VL: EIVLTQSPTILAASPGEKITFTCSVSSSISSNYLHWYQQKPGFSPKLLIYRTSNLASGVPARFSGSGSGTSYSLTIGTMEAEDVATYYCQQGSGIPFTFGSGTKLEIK', '0.274 nM'),
  ('Tocilizumab (antibody, human IgG1, kappa, V domains shown, In house made; also called benchmark; Actemra) VH: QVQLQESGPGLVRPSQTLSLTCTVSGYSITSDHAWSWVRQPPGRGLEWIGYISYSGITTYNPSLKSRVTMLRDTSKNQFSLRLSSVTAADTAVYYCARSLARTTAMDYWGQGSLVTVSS VL: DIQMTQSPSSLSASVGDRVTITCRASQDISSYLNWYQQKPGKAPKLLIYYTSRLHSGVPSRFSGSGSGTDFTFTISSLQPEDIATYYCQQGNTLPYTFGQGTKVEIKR', '1.64 nM');

Here are 3 binders. What values of EC50 were reported for them?
1. mouse anti-IL6R monoclonal antibody 1H9 (antibody, V domains shown, Mouse hybridoma mAb) VH: QVQLQQPGAELVKPGASVKLSCKASGYTFTSYWMHWVKLRPGQGLEWIGEINPTNGRTNYYEKFKNRATLTADKSSSTAYMQLSSLTFEDSAVYFCAKFHYSRWYFDVWGTGTTVTVSS VL: DIVMTQSQKFMSTSVGDRVSITCKASQNVGTAVVWYQQKPGQSPKLLINPASNRYTGVPDRFTGSGSGTDFTLTISNMQSEDLADYFCQQYSSYPLTFGAGTKLELK
2. mouse anti-IL6R monoclonal antibody 1F7 (antibody, V domains shown, Mouse hybridoma mAb) VH: QVQLQQPGAELVKPGASVKLSCKASDYTFTSYWMHWVKQRPGQGLEWIGEINPSNGRTNYNEKFKNKATLTVDKSSSTAYVQLYSLTSEDSAVYYCARLSIHYVFDYWGQGTTLTVSS VL: ELVLTQSPTTMAASPGEKITFTCSASSSISSNYLHWYQQKPGFSPKLLISGTSNLASGVPPRFSGSGSGTSYSLTIVTMEAEDVATYYCQQGSGIPFTFGSGTKLEIK
3. mouse anti-IL6R monoclonal antibody 1H7 (antibody, V domains shown, Mouse hybridoma mAb) VH: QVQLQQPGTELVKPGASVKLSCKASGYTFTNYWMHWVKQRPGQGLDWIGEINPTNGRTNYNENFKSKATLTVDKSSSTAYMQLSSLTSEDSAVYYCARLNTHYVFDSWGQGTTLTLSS VL: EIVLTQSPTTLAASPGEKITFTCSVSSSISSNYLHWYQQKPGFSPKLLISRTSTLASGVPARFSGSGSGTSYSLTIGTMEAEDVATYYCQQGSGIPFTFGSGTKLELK

1. 0.391 nM
2. 0.304 nM
3. 0.246 nM
